Below are Ki values measured for Mu-type opioid receptor (Rattus norvegicus, UniProt P33535).
State the answer as a number, implicitly in µM.

Reference set (4 entries):
C[C@@H]1[C@@H]2Cc3ccc(O)cc3[C@]1(C)CCN2CCN(C)c1ccccc1 = 0.0288
C[C@@H]1[C@@H]2Cc3ccc(O)cc3[C@]1(C)CCN2CCN1CCCCCC1 = 9.13
C[C@@H]1[C@@H]2Cc3ccc(O)cc3[C@]1(C)CCN2CCN1CCCCC1 = 12
C[C@@H]1[C@@H]2Cc3ccc(O)cc3[C@]1(C)CCN2CCN1CCCC1 = 3.8

Prompt line: For the molecule C[C@@H]1[C@@H]2Cc3ccc(O)cc3[C@]1(C)CCN2CCNc1ccccc1 , what Ki is on record?
Response line: 0.0798

Prompt line: For the molecule C[C@@H]1[C@@H]2Cc3ccc(O)cc3[C@]1(C)CCN2CCN1CCOCC1 , what Ki is on record?
Response line: 8.17

Prompt line: For the molecule CC(C)=CCN1CC[C@@]2(C)c3cc(O)ccc3C[C@H]1[C@H]2C , what Ki is on record?
Response line: 2.37
